The measurements presented in this section are drawn from patent US20210032291A1.

biological target: C3b (Homo sapiens, UniProt P01024); construct: Biotinylated C3b was captured site-specifically on a streptavidin chip; assay: SPR kinetic analysis of binding to immobilized C3b (Biacore, single cycle kinetics); settings: Table 1, N-terminal analogs; read-out: kd: dissociation rate
Sequence (P01024 23-667 limits assumed): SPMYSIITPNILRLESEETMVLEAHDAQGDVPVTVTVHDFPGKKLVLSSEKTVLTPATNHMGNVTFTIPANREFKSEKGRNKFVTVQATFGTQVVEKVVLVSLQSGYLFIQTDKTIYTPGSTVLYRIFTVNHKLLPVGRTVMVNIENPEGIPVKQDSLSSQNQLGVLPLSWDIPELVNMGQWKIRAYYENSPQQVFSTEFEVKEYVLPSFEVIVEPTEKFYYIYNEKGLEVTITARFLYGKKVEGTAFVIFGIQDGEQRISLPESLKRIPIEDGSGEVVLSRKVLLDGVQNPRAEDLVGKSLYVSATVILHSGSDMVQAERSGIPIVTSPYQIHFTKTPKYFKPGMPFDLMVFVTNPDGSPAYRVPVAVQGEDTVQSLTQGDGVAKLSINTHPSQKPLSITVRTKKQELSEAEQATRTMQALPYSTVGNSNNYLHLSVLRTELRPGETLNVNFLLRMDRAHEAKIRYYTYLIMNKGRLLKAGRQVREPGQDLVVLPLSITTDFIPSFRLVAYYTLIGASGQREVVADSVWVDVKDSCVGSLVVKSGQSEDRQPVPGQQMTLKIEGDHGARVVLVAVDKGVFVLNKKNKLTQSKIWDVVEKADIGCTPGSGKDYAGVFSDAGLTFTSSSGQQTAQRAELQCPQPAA
Sequence (P01024 749-1663 partner limits assumed): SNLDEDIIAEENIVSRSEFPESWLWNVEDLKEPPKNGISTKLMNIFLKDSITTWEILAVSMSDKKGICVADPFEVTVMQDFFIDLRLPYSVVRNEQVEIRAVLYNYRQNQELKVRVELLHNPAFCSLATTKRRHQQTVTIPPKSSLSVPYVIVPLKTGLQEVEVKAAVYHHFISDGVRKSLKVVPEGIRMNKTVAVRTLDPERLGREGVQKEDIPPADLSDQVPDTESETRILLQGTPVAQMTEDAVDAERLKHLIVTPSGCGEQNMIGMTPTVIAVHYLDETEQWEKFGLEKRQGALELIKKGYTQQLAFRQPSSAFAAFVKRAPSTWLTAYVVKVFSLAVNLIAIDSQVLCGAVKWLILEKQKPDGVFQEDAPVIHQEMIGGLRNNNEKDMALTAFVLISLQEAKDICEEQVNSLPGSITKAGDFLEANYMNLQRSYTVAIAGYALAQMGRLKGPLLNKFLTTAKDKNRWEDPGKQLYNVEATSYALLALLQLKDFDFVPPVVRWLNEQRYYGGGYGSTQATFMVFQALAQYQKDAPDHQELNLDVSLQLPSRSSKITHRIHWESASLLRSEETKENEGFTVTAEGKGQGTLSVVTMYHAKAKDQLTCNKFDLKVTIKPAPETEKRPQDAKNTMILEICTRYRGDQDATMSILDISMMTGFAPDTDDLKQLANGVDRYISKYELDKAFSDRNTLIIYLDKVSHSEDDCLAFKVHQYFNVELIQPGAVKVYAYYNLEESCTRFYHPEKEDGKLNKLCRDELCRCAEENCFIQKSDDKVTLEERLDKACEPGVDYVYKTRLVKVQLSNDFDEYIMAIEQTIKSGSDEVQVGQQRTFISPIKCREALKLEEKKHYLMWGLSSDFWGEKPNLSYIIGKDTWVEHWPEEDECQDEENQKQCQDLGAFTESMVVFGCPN
Bridge positions count the residues as written; N and C are the ends. Square brackets hold non-standard residues; d marks the D form. Peptide text beside a SMILES is read from it. Trp(1-Me) = Cn1cc(C[C@H](N)C(=O)O)c2ccccc21; NMeI = CC[C@H](C)[C@H](NC)C(=O)O; Sar = CNCC(=O)O
recorded-endpoint: koff (s⁻¹)
Unit s⁻¹ implied. Number only.

Record "CC[C@H](C)[C@H](NC(=O)[C@H](Cc1ccccc1)NC)C(=O)N[C@H]1CSSC[C@@H](C(=O)N(C)[C@H](C(N)=O)[C@@H](C)CC)NC(=O)[C@H](CCCNC(=N)N)NC(=O)[C@H](Cc2c[nH]cn2)NC(=O)[C@H](C)NC(=O)CN(C)C(=O)[C@H](Cc2c[nH]c3ccccc23)NC(=O)[C@H](CC(=O)O)NC(=O)[C@H](CCC(N)=O)NC(=O)[C@H](Cc2cn(C)c3ccccc23)NC(=O)[C@H](C(C)C)NC1=O" : what is its koff with C3b (Homo sapiens, UniProt P01024)? 0.0029

Repeat with CC[C@H](C)[C@@H](C(N)=O)N(C)C(=O)[C@@H]1CSSC[C@H](NC(=O)CNC(=O)[C@@H](N)Cc2ccc(O)cc2)C(=O)N[C@@H](C(C)C)C(=O)N[C@@H](Cc2cn(C)c3ccccc23)C(=O)N[C@@H](CCC(N)=O)C(=O)N[C@@H](CC(=O)O)C(=O)N[C@@H](Cc2c[nH]c3ccccc23)C(=O)N(C)CC(=O)N[C@@H](C)C(=O)N[C@@H](Cc2c[nH]cn2)C(=O)N[C@@H](CCCNC(=N)N)C(=O)N1 [peptide 20] (H-YGCV[Trp(1-Me)]QDW[Sar]AHRC[NMeI]-NH2; disulfide 3-13) 0.0073

Next entry: CC[C@H](C)[C@H](NC(=O)[C@@H](N)[C@@H](C)O)C(=O)N[C@H]1CSSC[C@@H](C(=O)N(C)[C@H](C(N)=O)[C@@H](C)CC)NC(=O)[C@H](CCCNC(=N)N)NC(=O)[C@H](Cc2c[nH]cn2)NC(=O)[C@H](C)NC(=O)CN(C)C(=O)[C@H](Cc2c[nH]c3ccccc23)NC(=O)[C@H](CC(=O)O)NC(=O)[C@H](CCC(N)=O)NC(=O)[C@H](Cc2cn(C)c3ccccc23)NC(=O)[C@H](C(C)C)NC1=O [compound 8] (H-TICV[Trp(1-Me)]QDW[Sar]AHRC[NMeI]-NH2; disulfide 3-13) 0.0031

Do the same for CC[C@H](C)[C@H](NC(=O)[C@@H](N)Cc1ccccc1)C(=O)N[C@H]1CSSC[C@@H](C(=O)N(C)[C@H](C(N)=O)[C@@H](C)CC)NC(=O)[C@H](CCCNC(=N)N)NC(=O)[C@H](Cc2c[nH]cn2)NC(=O)[C@H](C)NC(=O)CN(C)C(=O)[C@H](Cc2c[nH]c3ccccc23)NC(=O)[C@H](CC(=O)O)NC(=O)[C@H](CCC(N)=O)NC(=O)[C@H](Cc2cn(C)c3ccccc23)NC(=O)[C@H](C(C)C)NC1=O [compound 5] (H-FICV[Trp(1-Me)]QDW[Sar]AHRC[NMeI]-NH2; disulfide 3-13) please 0.0033

Next molecule: "CC[C@H](C)[C@H](NC(=O)[C@@H](NC)C(C)C)C(=O)N[C@H]1CSSC[C@@H](C(=O)N(C)[C@H](C(N)=O)[C@@H](C)CC)NC(=O)[C@H](CCCNC(=N)N)NC(=O)[C@H](Cc2c[nH]cn2)NC(=O)[C@H](C)NC(=O)CN(C)C(=O)[C@H](Cc2c[nH]c3ccccc23)NC(=O)[C@H](CC(=O)O)NC(=O)[C@H](CCC(N)=O)NC(=O)[C@H](Cc2cn(C)c3ccccc23)NC(=O)[C@H](C(C)C)NC1=O" 0.0035

Repeat for the following molecule: CC[C@H](C)[C@H](NC(=O)CN)C(=O)N[C@H]1CSSC[C@@H](C(=O)N(C)[C@H](C(N)=O)[C@@H](C)CC)NC(=O)[C@H](CCCNC(=N)N)NC(=O)[C@H](Cc2c[nH]cn2)NC(=O)[C@H](C)NC(=O)CN(C)C(=O)[C@H](Cc2c[nH]c3ccccc23)NC(=O)[C@H](CC(=O)O)NC(=O)[C@H](CCC(N)=O)NC(=O)[C@H](Cc2cn(C)c3ccccc23)NC(=O)[C@H](C(C)C)NC1=O [peptide 2] (H-GICV[Trp(1-Me)]QDW[Sar]AHRC[NMeI]-NH2; disulfide 3-13) 0.0029

Another molecule to check: "CC[C@H](C)[C@H](NC(=O)[C@H](C)NC)C(=O)N[C@H]1CSSC[C@@H](C(=O)N(C)[C@H](C(N)=O)[C@@H](C)CC)NC(=O)[C@H](CCCNC(=N)N)NC(=O)[C@H](Cc2c[nH]cn2)NC(=O)[C@H](C)NC(=O)CN(C)C(=O)[C@H](Cc2c[nH]c3ccccc23)NC(=O)[C@H](CC(=O)O)NC(=O)[C@H](CCC(N)=O)NC(=O)[C@H](Cc2cn(C)c3ccccc23)NC(=O)[C@H](C(C)C)NC1=O" 0.0034

Try this molecule too: "CC[C@H](C)[C@H](NC(=O)[C@@H](C)N)C(=O)N[C@H]1CSSC[C@@H](C(=O)N(C)[C@H](C(N)=O)[C@@H](C)CC)NC(=O)[C@H](CCCNC(=N)N)NC(=O)[C@H](Cc2c[nH]cn2)NC(=O)[C@H](C)NC(=O)CN(C)C(=O)[C@H](Cc2c[nH]c3ccccc23)NC(=O)[C@H](CC(=O)O)NC(=O)[C@H](CCC(N)=O)NC(=O)[C@H](Cc2cn(C)c3ccccc23)NC(=O)[C@H](C(C)C)NC1=O" 0.0034

----------
Kindly supply the reported koff values for the records listed here.
target: C3b (Homo sapiens, UniProt P01024); construct: Biotinylated C3b was captured site-specifically on a streptavidin chip; experiment: SPR kinetic analysis of binding to immobilized C3b (Biacore, single cycle kinetics); settings: Table 1, N-terminal analogs; read-out: kd: dissociation rate
I only need the number, in s⁻¹, no unit after it.

Which koff is listed for "CC[C@H](C)[C@H](NC(=O)[C@H](N)Cc1ccccc1)C(=O)N[C@H]1CSSC[C@@H](C(=O)N(C)[C@H](C(N)=O)[C@@H](C)CC)NC(=O)[C@H](CCCNC(=N)N)NC(=O)[C@H](Cc2c[nH]cn2)NC(=O)[C@H](C)NC(=O)CN(C)C(=O)[C@H](Cc2c[nH]c3ccccc23)NC(=O)[C@H](CC(=O)O)NC(=O)[C@H](CCC(N)=O)NC(=O)[C@H](Cc2cn(C)c3ccccc23)NC(=O)[C@H](C(C)C)NC1=O" ? 0.0026

Input CC[C@H](C)[C@H](NC)C(=O)N[C@H]1CSSC[C@@H](C(=O)N(C)[C@H](C(N)=O)[C@@H](C)CC)NC(=O)[C@H](CCCNC(=N)N)NC(=O)[C@H](Cc2c[nH]cn2)NC(=O)[C@H](C)NC(=O)CN(C)C(=O)[C@H](Cc2c[nH]c3ccccc23)NC(=O)[C@H](CC(=O)O)NC(=O)[C@H](CCC(N)=O)NC(=O)[C@H](Cc2cn(C)c3ccccc23)NC(=O)[C@H](C(C)C)NC1=O [peptide 1] 0.0248

Another: CC[C@H](C)[C@H](NC(=O)CNC)C(=O)N[C@H]1CSSC[C@@H](C(=O)N(C)[C@H](C(N)=O)[C@@H](C)CC)NC(=O)[C@H](CCCNC(=N)N)NC(=O)[C@H](Cc2c[nH]cn2)NC(=O)[C@H](C)NC(=O)CN(C)C(=O)[C@H](Cc2c[nH]c3ccccc23)NC(=O)[C@H](CC(=O)O)NC(=O)[C@H](CCC(N)=O)NC(=O)[C@H](Cc2cn(C)c3ccccc23)NC(=O)[C@H](C(C)C)NC1=O [peptide 3] 0.0029

----------
target: C3b (Homo sapiens, UniProt P01024); construct: Biotinylated C3b was captured site-specifically on a streptavidin chip; test: SPR kinetic analysis of binding to immobilized C3b (Biacore, single cycle kinetics); settings: Table 1, N-terminal analogs
Bridge positions count the residues as written; N and C are the ends. Square brackets hold non-standard residues; d marks the D form. Peptide text beside a SMILES is read from it. Trp(1-Me) = Cn1cc(C[C@H](N)C(=O)O)c2ccccc21; NMeI = CC[C@H](C)[C@H](NC)C(=O)O; Sar = CNCC(=O)O
Kindly supply the reported ka: association rate values for the records listed here.

# query: ka: association rate of entry CC[C@H](C)[C@H](NC(=O)[C@@H](N)[C@@H](C)O)C(=O)N[C@H]1CSSC[C@@H](C(=O)N(C)[C@H](C(N)=O)[C@@H](C)CC)NC(=O)[C@H](CCCNC(=N)N)NC(=O)[C@H](Cc2c[nH]cn2)NC(=O)[C@H](C)NC(=O)CN(C)C(=O)[C@H](Cc2c[nH]c3ccccc23)NC(=O)[C@H](CC(=O)O)NC(=O)[C@H](CCC(N)=O)NC(=O)[C@H](Cc2cn(C)c3ccccc23)NC(=O)[C@H](C(C)C)NC1=O [compound 8] (H-TICV[Trp(1-Me)]QDW[Sar]AHRC[NMeI]-NH2; disulfide 3-13) 1.2 ± 0.1 10^6/Ms

Next compound: "CC[C@H](C)[C@H](NC(=O)[C@H](C)NC)C(=O)N[C@H]1CSSC[C@@H](C(=O)N(C)[C@H](C(N)=O)[C@@H](C)CC)NC(=O)[C@H](CCCNC(=N)N)NC(=O)[C@H](Cc2c[nH]cn2)NC(=O)[C@H](C)NC(=O)CN(C)C(=O)[C@H](Cc2c[nH]c3ccccc23)NC(=O)[C@H](CC(=O)O)NC(=O)[C@H](CCC(N)=O)NC(=O)[C@H](Cc2cn(C)c3ccccc23)NC(=O)[C@H](C(C)C)NC1=O" 1.4 ± 0.2 10^6/Ms
